Molecular target: Thrombin & trypsin (Homo sapiens) (UniProt P00734+P07477+P07478+P35030)
Assay: Selectivity against Thrombin to that of trypsin
Assay type: protein assay
Measured Quantity: Selectivity

[[record]]
molecule = "N=C(N)c1ccc(CN2C(=O)COc3cc(NC(=O)C(Cc4ccccc4)C(=O)O)ccc32)cc1 (stereo not given)"
test_result = 0.1

[[record]]
molecule = "CCOC(=O)C[C@H](NC(=O)c1ccc2c(c1)OC(OCc1ccc(C(=N)N)cc1)C(=O)N2C)c1ccccc1 (stereo not given in full)"
test_result = 4.2

[[record]]
molecule = "CCOC(=O)[C@H](Cc1ccccc1)C(=O)Nc1ccc2c(c1)OCC(=O)N2Cc1ccc(C(=N)N)cc1"
test_result = 0.3

[[record]]
molecule = "CCOC(=O)CNC(=O)C(Cc1ccccc1)C(=O)Nc1ccc2c(c1)OCC(=O)N2Cc1ccc(C(=N)N)cc1 (stereo not given)"
test_result = 0.69

[[record]]
molecule = "CCOC(=O)[C@H](C)NC(=O)C(Cc1ccccc1)C(=O)Nc1ccc2c(c1)OCC(=O)N2Cc1ccc(C(=N)N)cc1 (stereo not given in full)"
test_result = 0.57

[[record]]
molecule = "CCOC(=O)CC[C@H](NC(=O)[C@H](Cc1ccccc1)C(=O)Nc1ccc2c(c1)OCC(=O)N2Cc1ccc(C(=N)N)cc1)C(=O)OCC"
test_result = 2

[[record]]
molecule = "CCOC(=O)[C@H](C)NC(=O)[C@H](Cc1ccccc1)C(=O)Nc1ccc2c(c1)OCC(=O)N2Cc1ccc(C(=N)N)cc1"
test_result = 0.5

[[record]]
molecule = "CCOC(=O)CC[C@H](NC(=O)C(Cc1ccccc1)C(=O)Nc1ccc2c(c1)OCC(=O)N2Cc1ccc(C(=N)N)cc1)C(=O)OCC (stereo not given in full)"
test_result = 0.5

[[record]]
molecule = "COC(=O)C(Cc1ccccc1)C(=O)Nc1ccc2c(c1)OCC(=O)N2Cc1ccc(C(=N)N)cc1 (stereo not given)"
test_result = 0.14

[[record]]
molecule = "N=C(N)c1ccc(CN2C(=O)COc3cc(NC(=O)C(Cc4ccccc4)C(=O)N[C@@H](CCC(=O)O)C(=O)O)ccc32)cc1 (stereo not given in full)"
test_result = 0.4


###

Assay: Inhibitory activity against thrombin
Please respond with 1 when measured Ki is strictly beneath 20 µM, and with 0 in all other cases.

[[record]]
molecule = "CN1C(=O)C(OCc2ccc(C(=N)N)cc2)Oc2cc(C(=O)N[C@@H](CC(=O)O)c3ccccc3)ccc21 (stereo not given in full)"
category = 1

[[record]]
molecule = "CCOC(=O)CNC(=O)C(Cc1ccccc1)C(=O)Nc1ccc2c(c1)OCC(=O)N2Cc1ccc(C(=N)N)cc1 (stereo not given)"
category = 1

[[record]]
molecule = "CCOC(=O)[C@H](C)NC(=O)C(Cc1ccccc1)C(=O)Nc1ccc2c(c1)OCC(=O)N2Cc1ccc(C(=N)N)cc1 (stereo not given in full)"
category = 0

[[record]]
molecule = "N=C(N)c1ccc(CN2C(=O)COc3cc(NC(=O)C(Cc4ccccc4)C(=O)O)ccc32)cc1 (stereo not given)"
category = 0

[[record]]
molecule = "N=C(N)c1ccc(CN2C(=O)COc3cc(NC(=O)C(Cc4ccccc4)C(=O)N[C@@H](CCC(=O)O)C(=O)O)ccc32)cc1 (stereo not given in full)"
category = 0

[[record]]
molecule = "CCOC(=O)CC[C@H](NC(=O)[C@H](Cc1ccccc1)C(=O)Nc1ccc2c(c1)OCC(=O)N2Cc1ccc(C(=N)N)cc1)C(=O)OCC"
category = 0

[[record]]
molecule = "CCOC(=O)[C@H](Cc1ccccc1)C(=O)Nc1ccc2c(c1)OCC(=O)N2Cc1ccc(C(=N)N)cc1"
category = 1

[[record]]
molecule = "CCOC(=O)CC[C@H](NC(=O)C(Cc1ccccc1)C(=O)Nc1ccc2c(c1)OCC(=O)N2Cc1ccc(C(=N)N)cc1)C(=O)OCC (stereo not given in full)"
category = 0

[[record]]
molecule = "COC(=O)C(Cc1ccccc1)C(=O)Nc1ccc2c(c1)OCC(=O)N2Cc1ccc(C(=N)N)cc1 (stereo not given)"
category = 0

[[record]]
molecule = "CCOC(=O)[C@H](C)NC(=O)[C@H](Cc1ccccc1)C(=O)Nc1ccc2c(c1)OCC(=O)N2Cc1ccc(C(=N)N)cc1"
category = 0

